Biological target: p101/p110γ protein (PI3Kγ) (Homo sapiens)
Construct: HA; made in house; host or cells: Spodoptera frugiperda (Sf9) cells, baculovirus coinfection
Sequence (P48736 whole entry, species assumed): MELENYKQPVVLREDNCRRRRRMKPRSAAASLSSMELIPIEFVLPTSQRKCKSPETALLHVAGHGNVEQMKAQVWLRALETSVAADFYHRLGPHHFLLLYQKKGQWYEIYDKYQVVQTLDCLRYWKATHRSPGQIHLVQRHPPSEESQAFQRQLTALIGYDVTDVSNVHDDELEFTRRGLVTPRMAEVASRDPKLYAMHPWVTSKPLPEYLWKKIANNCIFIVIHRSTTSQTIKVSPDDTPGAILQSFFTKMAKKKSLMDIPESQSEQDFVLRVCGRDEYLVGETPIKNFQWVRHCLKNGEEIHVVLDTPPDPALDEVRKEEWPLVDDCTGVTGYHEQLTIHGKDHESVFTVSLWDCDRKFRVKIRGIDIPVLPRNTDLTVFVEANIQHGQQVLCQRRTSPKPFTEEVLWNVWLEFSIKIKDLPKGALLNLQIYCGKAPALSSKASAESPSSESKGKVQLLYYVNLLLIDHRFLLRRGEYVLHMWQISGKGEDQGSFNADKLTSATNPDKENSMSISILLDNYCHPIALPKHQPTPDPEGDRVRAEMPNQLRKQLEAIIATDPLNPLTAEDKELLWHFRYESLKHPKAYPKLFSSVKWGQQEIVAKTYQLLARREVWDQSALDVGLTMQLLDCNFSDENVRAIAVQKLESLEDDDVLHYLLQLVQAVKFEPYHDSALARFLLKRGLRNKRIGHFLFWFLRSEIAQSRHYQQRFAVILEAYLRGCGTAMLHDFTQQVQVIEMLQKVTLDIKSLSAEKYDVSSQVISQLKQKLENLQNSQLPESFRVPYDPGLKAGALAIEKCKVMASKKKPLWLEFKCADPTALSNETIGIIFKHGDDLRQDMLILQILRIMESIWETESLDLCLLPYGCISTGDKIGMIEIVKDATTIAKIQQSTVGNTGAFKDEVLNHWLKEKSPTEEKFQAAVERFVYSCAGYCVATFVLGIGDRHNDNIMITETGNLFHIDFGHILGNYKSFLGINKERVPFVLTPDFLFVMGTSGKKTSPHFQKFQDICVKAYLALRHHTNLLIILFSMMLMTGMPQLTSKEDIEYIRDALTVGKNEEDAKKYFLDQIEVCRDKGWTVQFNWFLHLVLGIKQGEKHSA
Sequence (Q8WYR1 whole entry partner, species assumed): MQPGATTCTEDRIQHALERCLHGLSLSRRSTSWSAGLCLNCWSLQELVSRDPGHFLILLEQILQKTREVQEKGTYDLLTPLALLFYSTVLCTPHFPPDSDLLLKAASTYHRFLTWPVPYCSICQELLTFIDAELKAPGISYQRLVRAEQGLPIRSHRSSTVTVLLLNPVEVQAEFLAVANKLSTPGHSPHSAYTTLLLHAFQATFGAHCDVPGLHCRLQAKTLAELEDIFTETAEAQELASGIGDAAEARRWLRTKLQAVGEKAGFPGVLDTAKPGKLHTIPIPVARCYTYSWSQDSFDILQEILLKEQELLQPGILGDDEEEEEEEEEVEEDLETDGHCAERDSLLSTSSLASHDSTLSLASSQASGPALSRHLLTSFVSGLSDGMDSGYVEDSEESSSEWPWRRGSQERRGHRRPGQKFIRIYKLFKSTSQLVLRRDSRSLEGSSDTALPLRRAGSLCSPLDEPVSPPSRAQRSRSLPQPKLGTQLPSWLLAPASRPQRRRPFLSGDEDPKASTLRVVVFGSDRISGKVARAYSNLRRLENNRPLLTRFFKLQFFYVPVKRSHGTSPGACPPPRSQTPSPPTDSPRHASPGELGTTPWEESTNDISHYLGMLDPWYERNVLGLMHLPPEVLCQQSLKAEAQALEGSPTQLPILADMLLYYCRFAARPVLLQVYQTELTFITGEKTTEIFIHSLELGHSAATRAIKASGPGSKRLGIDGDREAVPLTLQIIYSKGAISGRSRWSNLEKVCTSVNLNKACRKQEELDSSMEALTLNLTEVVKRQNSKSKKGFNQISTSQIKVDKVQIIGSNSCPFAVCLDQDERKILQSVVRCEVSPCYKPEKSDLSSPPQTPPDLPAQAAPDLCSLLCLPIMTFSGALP
Test: PI3Kγ in vitro kinase assay
Assay type: biochemical
Details: purified recombinant p101/p110γ with G protein β1/γ2 subunits; 20 μM ATP, 25 μM PIP2; 20 minutes at room temperature
measurementKind: IC50 (nM)

QUERY: IC50 of "COc1cccc(Sc2c(C(=O)Nc3nn[nH]n3)[nH]c3cc(OC)c(OC)cc23)c1" on p101/p110γ protein (PI3Kγ) (Homo sapiens)?
RESULT: 725

QUERY: IC50 of "COc1cc2c(Sc3ccccc3)c(C(=O)Nc3nn[nH]n3)n(C)c2cc1OC" on p101/p110γ protein (PI3Kγ) (Homo sapiens)?
RESULT: 550

(A) COc1cc2[nH]c(C(=O)Nc3nn[nH]n3)c(Sc3ccc(Cl)c(Cl)c3)c2cc1OC
(B) COc1cc2[nH]c(C(=O)Nc3nn[nH]n3)c(Sc3ccccc3C)c2cc1OC
(C) COc1cc2[nH]c(C(=O)Nc3nn[nH]n3)c(Sc3ccccc3)c2cc1OC
QUERY: Put the compounds in ascending order of IC50. As an answer, provide the labels arranged in the order called for.
RESULT: C, B, A
